Reference source: the kinase profiling compilation of Christmann-Franck et al. (2016)

# TEST TARGET: PIP5K1A (human) (UniProt Q99755)
# Sequence (Q99755 whole entry, looked up): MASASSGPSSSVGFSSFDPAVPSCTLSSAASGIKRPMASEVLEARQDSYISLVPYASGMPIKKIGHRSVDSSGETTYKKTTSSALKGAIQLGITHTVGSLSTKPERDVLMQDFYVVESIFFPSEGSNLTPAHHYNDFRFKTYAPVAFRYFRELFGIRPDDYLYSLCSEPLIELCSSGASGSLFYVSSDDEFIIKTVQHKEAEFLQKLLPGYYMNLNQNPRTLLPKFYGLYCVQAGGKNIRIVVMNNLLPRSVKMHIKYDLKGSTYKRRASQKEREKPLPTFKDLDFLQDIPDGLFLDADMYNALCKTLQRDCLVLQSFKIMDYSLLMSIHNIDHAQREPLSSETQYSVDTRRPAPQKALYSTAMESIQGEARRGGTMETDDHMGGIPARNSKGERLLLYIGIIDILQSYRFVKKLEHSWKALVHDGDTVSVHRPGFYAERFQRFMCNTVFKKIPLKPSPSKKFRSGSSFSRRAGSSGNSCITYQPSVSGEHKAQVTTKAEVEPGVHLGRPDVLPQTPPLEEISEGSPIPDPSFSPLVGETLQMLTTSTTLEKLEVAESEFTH
# ASSAY: KINOMEscan competition binding
# TEST PARAMETERS: compound 10.0 µM
ASSAY ENDPOINT: kinase still bound, per cent of control (%)
One number for each entry, in %.

The molecule CC(=O)c1c(C)c2cnc(Nc3ccc(N4CCNCC4)cn3)nc2n(C2CCCC2)c1=O , when measured on PIP5K1A (human) (UniProt Q99755), yielded kinase still bound, per cent of control of 32

The molecule O=c1[nH]c2ccccc2n1C1CCN(Cc2ccc(-c3nc4cc5[nH]cnc5cc4nc3-c3ccccc3)cc2)CC1 , when measured on PIP5K1A (human) (UniProt Q99755), yielded kinase still bound, per cent of control of 88

The molecule N#C/C(=C1/Nc2ccccc2S1)c1ccnc(NCCc2cccnc2)n1 , when measured on PIP5K1A (human) (UniProt Q99755), yielded kinase still bound, per cent of control of 18

Batch of 6 molecules: report kinase still bound, per cent of control for each.
1. COc1ccc(N(C(=O)Oc2cc(C(=O)Nc3cccc(C(F)(F)F)c3)ccc2C)c2ccnc(Nc3ccc(N4CCN(C)CC4)cc3)n2)c(OC)c1
2. N#Cc1cc(-c2ccnc(Nc3ccc(-n4cnc(-c5cccnc5)n4)cc3)n2)cc(N2CCOCC2)c1
3. CCc1nc(-c2cccc(C)c2)c(-c2ccnc(NC(=O)c3ccccc3)c2)s1
4. COc1cc2ncnc(Nc3cccc(Cl)c3)c2cc1OC
5. C=CC(=O)Nc1ccc(C(=O)c2sc(Nc3ccc(N4CCN(C)CC4)cc3OC)nc2N)cc1
6. COc1cc(N2CCC(C(N)=O)CC2)ccc1Nc1nc(N)c(Cl)c(Nc2ccccc2S(=O)(=O)C(C)C)n1

100
17
100
93
34
100

Batch of 2 molecules: report kinase still bound, per cent of control for each.
1. COc1cc2c(Nc3ccc(NC(=O)c4ccccc4)cc3)ncnc2cc1OCCCN1CCOCC1
2. CCN(CCO)CCCOc1ccc2c(Nc3cc(CC(=O)Nc4cccc(F)c4)[nH]n3)ncnc2c1

1: 100; 2: 73

---

Please respond with reported kinase still bound, per cent of control for every item in the list.
# TEST TARGET: ERBB2 (human) (UniProt P04626)
# Sequence (P04626 whole entry, looked up): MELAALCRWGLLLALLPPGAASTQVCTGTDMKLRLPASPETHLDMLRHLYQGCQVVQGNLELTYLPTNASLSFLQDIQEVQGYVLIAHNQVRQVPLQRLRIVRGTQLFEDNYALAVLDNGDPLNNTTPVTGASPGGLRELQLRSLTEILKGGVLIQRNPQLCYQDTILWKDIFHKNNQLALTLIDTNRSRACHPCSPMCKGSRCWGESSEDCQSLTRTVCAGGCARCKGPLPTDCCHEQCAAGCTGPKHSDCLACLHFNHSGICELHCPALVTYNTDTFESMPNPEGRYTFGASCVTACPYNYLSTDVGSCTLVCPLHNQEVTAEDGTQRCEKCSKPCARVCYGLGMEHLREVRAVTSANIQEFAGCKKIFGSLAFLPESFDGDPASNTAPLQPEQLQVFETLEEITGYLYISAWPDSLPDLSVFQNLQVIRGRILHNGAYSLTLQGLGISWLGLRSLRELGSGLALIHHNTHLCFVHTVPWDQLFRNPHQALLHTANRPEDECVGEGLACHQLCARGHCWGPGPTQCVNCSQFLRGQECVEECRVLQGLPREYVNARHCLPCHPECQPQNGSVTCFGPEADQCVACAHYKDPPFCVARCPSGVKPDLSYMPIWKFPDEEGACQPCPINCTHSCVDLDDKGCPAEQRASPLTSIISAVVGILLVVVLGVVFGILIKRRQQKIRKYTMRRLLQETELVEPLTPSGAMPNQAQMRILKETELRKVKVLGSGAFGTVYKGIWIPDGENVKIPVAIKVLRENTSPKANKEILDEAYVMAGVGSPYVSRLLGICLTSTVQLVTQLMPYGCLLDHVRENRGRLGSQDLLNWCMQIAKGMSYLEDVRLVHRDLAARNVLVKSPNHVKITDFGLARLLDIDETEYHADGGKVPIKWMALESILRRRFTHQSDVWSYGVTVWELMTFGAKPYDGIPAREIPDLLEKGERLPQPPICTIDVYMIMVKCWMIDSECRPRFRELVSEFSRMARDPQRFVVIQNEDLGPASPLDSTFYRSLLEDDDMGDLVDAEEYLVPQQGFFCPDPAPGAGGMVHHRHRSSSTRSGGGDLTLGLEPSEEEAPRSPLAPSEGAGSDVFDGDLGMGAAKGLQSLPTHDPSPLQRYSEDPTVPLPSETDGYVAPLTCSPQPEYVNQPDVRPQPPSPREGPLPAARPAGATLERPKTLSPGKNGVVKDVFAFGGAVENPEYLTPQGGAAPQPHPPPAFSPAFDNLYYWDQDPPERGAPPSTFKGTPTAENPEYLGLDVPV
# ASSAY: KINOMEscan competition binding
# TEST PARAMETERS: compound 10.0 µM
Give bare numbers, in %.

Reported kinase still bound, per cent of control ( COc1ccc(N(C(=O)Oc2cc(C(=O)Nc3cccc(C(F)(F)F)c3)ccc2C)c2ccnc(Nc3ccc(N4CCN(C)CC4)cc3)n2)c(OC)c1 ) = 100

Reported kinase still bound, per cent of control ( C=CC(=O)Nc1ccc(C(=O)c2sc(Nc3ccc(N4CCN(C)CC4)cc3OC)nc2N)cc1 ) = 77

Reported kinase still bound, per cent of control ( CCOc1cc(N2CCC(O)CC2)ccc1Nc1ncc2c(n1)N(C)c1ccccc1C(=O)N2C ) = 100

Reported kinase still bound, per cent of control ( N#Cc1cc(-c2ccnc(Nc3ccc(-n4cnc(-c5cccnc5)n4)cc3)n2)cc(N2CCOCC2)c1 ) = 100

Reported kinase still bound, per cent of control ( CC1=C(C(=O)Nc2cc3cn[nH]c3cc2F)C(c2ccc(C(F)(F)F)cc2)CC(=O)N1 (centres undefined) ) = 71

Batch of 4 compounds: report kinase still bound, per cent of control for each.
1. COc1cc(N2CCC(C(N)=O)CC2)ccc1Nc1nc(N)c(Cl)c(Nc2ccccc2S(=O)(=O)C(C)C)n1
2. O=c1[nH]c2ccccc2n1C1CCN(Cc2ccc(-c3nc4cc5[nH]cnc5cc4nc3-c3ccccc3)cc2)CC1
3. COc1cc2ncnc(Nc3cccc(Cl)c3)c2cc1OC
4. CCc1nc(-c2cccc(C)c2)c(-c2ccnc(NC(=O)c3ccccc3)c2)s1

1: 18; 2: 86; 3: 0.3; 4: 43

---

# TEST TARGET: UniProt P78362
# Sequence (P78362 whole entry, looked up): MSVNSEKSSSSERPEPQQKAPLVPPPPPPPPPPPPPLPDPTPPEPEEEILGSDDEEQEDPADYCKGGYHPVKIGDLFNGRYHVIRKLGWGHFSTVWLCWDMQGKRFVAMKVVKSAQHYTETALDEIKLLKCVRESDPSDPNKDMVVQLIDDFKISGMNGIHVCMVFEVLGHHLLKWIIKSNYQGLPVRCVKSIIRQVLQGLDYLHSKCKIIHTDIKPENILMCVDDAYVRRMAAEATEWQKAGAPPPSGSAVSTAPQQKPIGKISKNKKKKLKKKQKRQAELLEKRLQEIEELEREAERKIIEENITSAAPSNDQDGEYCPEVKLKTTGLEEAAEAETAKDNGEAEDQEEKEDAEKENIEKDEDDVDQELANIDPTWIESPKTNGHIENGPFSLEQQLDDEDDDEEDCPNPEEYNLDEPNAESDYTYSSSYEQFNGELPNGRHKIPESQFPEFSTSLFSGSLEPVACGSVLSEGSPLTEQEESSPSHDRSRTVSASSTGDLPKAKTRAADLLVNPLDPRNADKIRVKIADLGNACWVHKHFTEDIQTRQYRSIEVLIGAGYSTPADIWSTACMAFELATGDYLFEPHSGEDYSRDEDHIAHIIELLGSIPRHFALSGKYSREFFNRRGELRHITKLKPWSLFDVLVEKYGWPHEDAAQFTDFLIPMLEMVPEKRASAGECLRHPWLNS
# ASSAY: KINOMEscan competition binding
# TEST PARAMETERS: compound 10.0 µM
Please use YES for kinase still bound, per cent of control under 60% and NO for everything else, ties included.

I'd appreciate it if you could check whether CCCS(=O)(=O)Nc1ccc(F)c(C(=O)c2c[nH]c3ncc(Cl)cc23)c1F has kinase still bound, per cent of control smaller than 60%. NO

I'd appreciate it if you could check whether Cc1cn(-c2cc(C(=O)Nc3ccc(C)c(NC(=O)c4ccno4)c3)cc(C(F)(F)F)c2)cn1 has kinase still bound, per cent of control smaller than 60%. NO

I'd appreciate it if you could check whether COc1cc(C)c(Sc2cnc(NC(=O)c3ccc(CNC(C)C(C)C)cc3)s2)cc1C(=O)N1CCN(C(C)=O)CC1 (centres undefined) has kinase still bound, per cent of control smaller than 60%. NO

I'd appreciate it if you could check whether C=CC(=O)Nc1ccc(C(=O)c2sc(Nc3ccc(N4CCN(C)CC4)cc3OC)nc2N)cc1 has kinase still bound, per cent of control smaller than 60%. NO

I'd appreciate it if you could check whether CCN1CCN(Cc2ccc(NC(=O)c3ccc(C)c(/C=C/c4cnc5[nH]ccc5c4OC)c3)cc2C(F)(F)F)CC1 has kinase still bound, per cent of control smaller than 60%. YES

I'd appreciate it if you could check whether COc1cc(N2CCC(C(N)=O)CC2)ccc1Nc1nc(N)c(Cl)c(Nc2ccccc2S(=O)(=O)C(C)C)n1 has kinase still bound, per cent of control smaller than 60%. NO

More entries:
I'd appreciate it if you could check whether COc1cc2ncnc(Nc3cccc(Cl)c3)c2cc1OC has kinase still bound, per cent of control smaller than 60%. NO

I'd appreciate it if you could check whether CC1=C(C(=O)Nc2cc3cn[nH]c3cc2F)C(c2ccc(C(F)(F)F)cc2)CC(=O)N1 (centres undefined) has kinase still bound, per cent of control smaller than 60%. NO

I'd appreciate it if you could check whether N#Cc1cc(-c2ccnc(Nc3ccc(-n4cnc(-c5cccnc5)n4)cc3)n2)cc(N2CCOCC2)c1 has kinase still bound, per cent of control smaller than 60%. YES

---

Please respond with reported kinase still bound, per cent of control for every item in the list.
# TEST TARGET: HIPK2 (human) (UniProt Q9H2X6)
# Sequence (Q9H2X6 whole entry, looked up): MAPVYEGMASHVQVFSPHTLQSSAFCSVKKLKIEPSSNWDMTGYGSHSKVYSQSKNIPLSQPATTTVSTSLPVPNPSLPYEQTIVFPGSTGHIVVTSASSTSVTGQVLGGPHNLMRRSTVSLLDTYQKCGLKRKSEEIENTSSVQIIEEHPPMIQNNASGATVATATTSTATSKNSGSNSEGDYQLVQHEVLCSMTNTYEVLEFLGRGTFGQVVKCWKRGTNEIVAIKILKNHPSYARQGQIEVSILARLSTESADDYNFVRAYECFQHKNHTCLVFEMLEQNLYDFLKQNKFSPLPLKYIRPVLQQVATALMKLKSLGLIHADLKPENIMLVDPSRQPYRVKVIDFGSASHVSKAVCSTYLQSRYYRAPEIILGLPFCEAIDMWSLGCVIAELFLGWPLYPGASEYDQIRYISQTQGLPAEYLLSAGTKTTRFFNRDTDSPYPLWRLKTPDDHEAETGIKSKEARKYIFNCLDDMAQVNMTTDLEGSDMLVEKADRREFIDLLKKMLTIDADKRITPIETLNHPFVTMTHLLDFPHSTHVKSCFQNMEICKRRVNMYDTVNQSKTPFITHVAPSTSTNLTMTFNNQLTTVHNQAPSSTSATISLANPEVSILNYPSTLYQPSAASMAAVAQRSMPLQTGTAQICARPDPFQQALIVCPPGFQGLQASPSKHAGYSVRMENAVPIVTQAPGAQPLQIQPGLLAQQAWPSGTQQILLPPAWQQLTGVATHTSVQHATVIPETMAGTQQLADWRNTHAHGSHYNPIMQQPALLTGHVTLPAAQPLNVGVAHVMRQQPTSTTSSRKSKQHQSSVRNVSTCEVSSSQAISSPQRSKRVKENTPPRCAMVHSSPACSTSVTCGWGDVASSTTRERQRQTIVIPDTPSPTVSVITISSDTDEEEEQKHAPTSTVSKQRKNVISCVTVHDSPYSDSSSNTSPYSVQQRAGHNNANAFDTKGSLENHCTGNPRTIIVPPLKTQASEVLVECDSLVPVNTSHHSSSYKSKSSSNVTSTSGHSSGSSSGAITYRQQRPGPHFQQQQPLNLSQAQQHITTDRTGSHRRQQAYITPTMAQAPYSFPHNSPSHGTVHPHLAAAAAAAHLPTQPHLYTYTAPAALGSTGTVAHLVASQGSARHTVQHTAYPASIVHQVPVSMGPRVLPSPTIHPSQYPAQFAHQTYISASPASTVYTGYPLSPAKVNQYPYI
# ASSAY: KINOMEscan competition binding
# TEST PARAMETERS: compound 10.0 µM
Give bare numbers, in %.

Reported kinase still bound, per cent of control ( C=CC(=O)Nc1ccc(C(=O)c2sc(Nc3ccc(N4CCN(C)CC4)cc3OC)nc2N)cc1 ) = 40

Reported kinase still bound, per cent of control ( CCN1CCN(Cc2ccc(NC(=O)c3ccc(C)c(/C=C/c4cnc5[nH]ccc5c4OC)c3)cc2C(F)(F)F)CC1 ) = 41

Reported kinase still bound, per cent of control ( N#Cc1cc(-c2ccnc(Nc3ccc(-n4cnc(-c5cccnc5)n4)cc3)n2)cc(N2CCOCC2)c1 ) = 6.2

Reported kinase still bound, per cent of control ( CC(=O)c1c(C)c2cnc(Nc3ccc(N4CCNCC4)cn3)nc2n(C2CCCC2)c1=O ) = 0.25

Reported kinase still bound, per cent of control ( N#C/C(=C1/Nc2ccccc2S1)c1ccnc(NCCc2cccnc2)n1 ) = 1.4

Batch of 2 molecules: report kinase still bound, per cent of control for each.
1. CCCS(=O)(=O)Nc1ccc(F)c(C(=O)c2c[nH]c3ncc(Cl)cc23)c1F
2. CNC(=O)Nc1ccc(-c2nc(N3CC4CCC(C3)O4)c3cnn(C4CCC5(CC4)OCCO5)c3n2)cc1

20
100

Batch of 2 molecules: report kinase still bound, per cent of control for each.
1. CCc1nc(-c2cccc(C)c2)c(-c2ccnc(NC(=O)c3ccccc3)c2)s1
2. CC1=C(C(=O)Nc2cc3cn[nH]c3cc2F)C(c2ccc(C(F)(F)F)cc2)CC(=O)N1 (stereo not given)

1. 100
2. 87

Reported kinase still bound, per cent of control ( COc1cc2c(Nc3ccc(NC(=O)c4ccccc4)cc3)ncnc2cc1OCCCN1CCOCC1 ) = 50

---

# TEST TARGET: INSR (human) (UniProt P06213)
# ASSAY: KINOMEscan competition binding
# TEST PARAMETERS: compound 10.0 µM
ASSAY ENDPOINT: kinase still bound, per cent of control (%)
One number for each entry, in %.

Reported kinase still bound, per cent of control ( CCOc1cc(N2CCC(O)CC2)ccc1Nc1ncc2c(n1)N(C)c1ccccc1C(=O)N2C ) = 100

Batch of 7 molecules: report kinase still bound, per cent of control for each.
1. CNC(=O)Nc1ccc(-c2nc(N3CC4CCC(C3)O4)c3cnn(C4CCC5(CC4)OCCO5)c3n2)cc1
2. CC(=O)c1c(C)c2cnc(Nc3ccc(N4CCNCC4)cn3)nc2n(C2CCCC2)c1=O
3. N#C/C(=C1/Nc2ccccc2S1)c1ccnc(NCCc2cccnc2)n1
4. Cc1cn(-c2cc(C(=O)Nc3ccc(C)c(NC(=O)c4ccno4)c3)cc(C(F)(F)F)c2)cn1
5. COc1cc2c(Nc3ccc(NC(=O)c4ccccc4)cc3)ncnc2cc1OCCCN1CCOCC1
6. N#Cc1cc(-c2ccnc(Nc3ccc(-n4cnc(-c5cccnc5)n4)cc3)n2)cc(N2CCOCC2)c1
7. COc1cc(C)c(Sc2cnc(NC(=O)c3ccc(CNC(C)C(C)C)cc3)s2)cc1C(=O)N1CCN(C(C)=O)CC1 (configuration not stated)

1. 84
2. 67
3. 92
4. 100
5. 77
6. 78
7. 5.1

Batch of 7 molecules: report kinase still bound, per cent of control for each.
1. COc1cc(N2CCC(C(N)=O)CC2)ccc1Nc1nc(N)c(Cl)c(Nc2ccccc2S(=O)(=O)C(C)C)n1
2. CCCS(=O)(=O)Nc1ccc(F)c(C(=O)c2c[nH]c3ncc(Cl)cc23)c1F
3. CC1=C(C(=O)Nc2cc3cn[nH]c3cc2F)C(c2ccc(C(F)(F)F)cc2)CC(=O)N1 (configuration not stated)
4. C=CC(=O)Nc1ccc(C(=O)c2sc(Nc3ccc(N4CCN(C)CC4)cc3OC)nc2N)cc1
5. COc1cc2ncnc(Nc3cccc(Cl)c3)c2cc1OC
6. COc1ccc(N(C(=O)Oc2cc(C(=O)Nc3cccc(C(F)(F)F)c3)ccc2C)c2ccnc(Nc3ccc(N4CCN(C)CC4)cc3)n2)c(OC)c1
7. O=c1[nH]c2ccccc2n1C1CCN(Cc2ccc(-c3nc4cc5[nH]cnc5cc4nc3-c3ccccc3)cc2)CC1

0.05
83
96
98
62
100
64

Batch of 2 molecules: report kinase still bound, per cent of control for each.
1. CCN1CCN(Cc2ccc(NC(=O)c3ccc(C)c(/C=C/c4cnc5[nH]ccc5c4OC)c3)cc2C(F)(F)F)CC1
2. CCN(CCO)CCCOc1ccc2c(Nc3cc(CC(=O)Nc4cccc(F)c4)[nH]n3)ncnc2c1

79
75
